These entries and their values trace back to paper PMC8445433.

- TARGET ENTITY: DRB1*04:01 (Homo sapiens, UniProt P01903+P01911, A100K/A169T/F76Y/I96L/K127E/L162R/M171V/N62H/P40V/Q125Y/R42H/S133A/S149N/S66Y/V115G/V209L/W38E)
- PROTOCOL DETAILS: biochemical
Where a SMILES comes first, the peptide text is derived from it.
The reader will find reported pIC50 values listed item by item below.
Notebook: values listed as pIC50 are -log10 of the concentration (mol/L).

CC[C@H](C)[C@H](NC(=O)[C@H](Cc1c[nH]cn1)NC(=O)[C@H](CCCCN)NC(=O)[C@H](CC(N)=O)NC(=O)[C@H](CC(C)C)NC(=O)[C@H](CC(C)C)NC(=O)[C@@H](NC(=O)[C@@H](NC(=O)[C@H](CCC(N)=O)NC(=O)[C@H](CC(=O)O)NC(=O)[C@H](CCCCN)NC(=O)[C@@H](N)Cc1ccccc1)C(C)C)[C@@H](C)CC)C(=O)N[C@@H](CC(=O)O)C(=O)N[C@@H](C)C(=O)N[C@@H](Cc1ccc(O)cc1)C(=O)O [Ncl_70] (H-FKDQVILLNKHIDAY-OH) | 4.85

Query string: Find the recorded pIC50 belonging to CC(C)C[C@H](NC(=O)[C@H](CC(N)=O)NC(=O)[C@H](CCCCN)NC(=O)[C@@H](NC(=O)[C@H](CCCNC(=N)N)NC(=O)[C@H](CO)NC(=O)[C@H](Cc1ccc(O)cc1)NC(=O)[C@@H](NC(=O)[C@H](Cc1ccc(O)cc1)NC(=O)[C@H](Cc1ccccc1)NC(=O)[C@H](CO)NC(=O)[C@@H]1CCCN1C(=O)[C@H](CCCCN)NC(=O)[C@@H](NC(=O)[C@@H](N)CC(C)C)C(C)C)C(C)C)C(C)C)C(=O)O [Env_11] (H-LVKPSFYVYSRVKNL-OH) and report it.
Result string: 6.06

----------
- TARGET ENTITY: DRB1*04:01 (Homo sapiens, UniProt P01903+P01911, A100K/A169T/F76Y/I96L/K127E/L162R/M171V/N62H/P40V/Q125Y/R42H/S133A/S149N/S66Y/V115G/V209L/W38E)
- PROTOCOL DETAILS: biochemical
- Assay type: binding
Where a SMILES comes first, the peptide text is derived from it.
Measured pIC50 accompanies every entry in the list below.
Remember, pIC50 is on a log scale: it is -log10 of the molar concentration.

CC[C@H](C)[C@H](NC(=O)CNC(=O)[C@H](CC(=O)O)NC(=O)[C@H](CCCCN)NC(=O)[C@@H](N)CC(N)=O)C(=O)N[C@H](C(=O)N[C@@H](Cc1c[nH]c2ccccc12)C(=O)N[C@H](C(=O)N[C@@H](C)C(=O)N[C@H](C(=O)N[C@@H](CCC(=O)O)C(=O)NCC(=O)N[C@@H](C)C(=O)N[C@@H](CC(C)C)C(=O)N[C@@H](CC(N)=O)C(=O)O)[C@@H](C)O)C(C)C)[C@@H](C)CC [Ncl_26] (H-NKDGIIWVATEGALN-OH) | 6.74

Query string: Name the recorded pIC50 for CC[C@H](C)[C@H](NC(=O)[C@H](CCC(=O)O)NC(=O)[C@@H](N)CCCCN)C(=O)N[C@H](C(=O)N[C@H](C(=O)N[C@@H](C)C(=O)N[C@H](C(=O)N[C@@H](CO)C(=O)N[C@@H](CCCNC(=N)N)C(=O)N[C@H](C(=O)N[C@@H](CC(C)C)C(=O)N[C@@H](CO)C(=O)N[C@@H](Cc1ccc(O)cc1)C(=O)N[C@@H](Cc1ccc(O)cc1)C(=O)N[C@@H](CCCCN)C(=O)O)[C@@H](C)O)[C@@H](C)O)C(C)C)[C@@H](C)O [Mem_34] (H-KEITVATSRTLSYYK-OH) .
Result string: 6.47

Query string: Fill in the blank: the reported pIC50 of CC[C@H](C)[C@H](NC(=O)CNC(=O)[C@H](CC(=O)O)NC(=O)[C@H](CCCCN)NC(=O)[C@H](CC(N)=O)NC(=O)[C@H](C)NC(=O)CNC(=O)[C@H](Cc1ccc(O)cc1)NC(=O)[C@@H]1CCCN1C(=O)[C@@H](N)CC(C)C)C(=O)N[C@H](C(=O)N[C@@H](Cc1c[nH]c2ccccc12)C(=O)N[C@H](C(=O)N[C@@H](C)C(=O)N[C@H](C(=O)O)[C@@H](C)O)C(C)C)[C@@H](C)CC [Ncl_25] (H-LPYGANKDGIIWVAT-OH) is ____.
Result string: 4.68

----------
- TARGET ENTITY: DRB4*01:01 (Homo sapiens, UniProt P01903+P13762, G164S)
- PROTOCOL DETAILS: biochemical
Where a SMILES comes first, the peptide text is derived from it.
REPORTED METRIC: IC50 (nM)
State the answer as a number, implicitly in nM.

CC[C@H](C)[C@H](NC(=O)[C@H](Cc1c[nH]cn1)NC(=O)[C@H](CCCCN)NC(=O)[C@H](CC(N)=O)NC(=O)[C@H](CC(C)C)NC(=O)[C@H](CC(C)C)NC(=O)[C@@H](NC(=O)[C@@H](NC(=O)[C@H](CCC(N)=O)NC(=O)[C@H](CC(=O)O)NC(=O)[C@H](CCCCN)NC(=O)[C@@H](N)Cc1ccccc1)C(C)C)[C@@H](C)CC)C(=O)N[C@@H](CC(=O)O)C(=O)N[C@@H](C)C(=O)N[C@@H](Cc1ccc(O)cc1)C(=O)O [Ncl_70] (H-FKDQVILLNKHIDAY-OH) | 719
CC(C)C[C@H](NC(=O)[C@H](CCC(N)=O)NC(=O)[C@H](CC(N)=O)NC(=O)[C@H](CC(C)C)NC(=O)[C@H](CCCNC(=N)N)NC(=O)[C@H](CC(=O)O)NC(=O)[C@H](CC(C)C)NC(=O)[C@H](CC(C)C)NC(=O)[C@H](CC(C)C)NC(=O)[C@H](CC(C)C)NC(=O)[C@H](C)NC(=O)[C@H](CC(C)C)NC(=O)[C@H](C)NC(=O)[C@H](C)NC(=O)[C@@H](N)CC(=O)O)C(=O)O [Ncl_44] (H-DAALALLLLDRLNQL-OH) | 43
CC[C@H](C)[C@H](NC(=O)CNC(=O)[C@H](CC(=O)O)NC(=O)[C@H](CCCCN)NC(=O)[C@@H](N)CC(N)=O)C(=O)N[C@H](C(=O)N[C@@H](Cc1c[nH]c2ccccc12)C(=O)N[C@H](C(=O)N[C@@H](C)C(=O)N[C@H](C(=O)N[C@@H](CCC(=O)O)C(=O)NCC(=O)N[C@@H](C)C(=O)N[C@@H](CC(C)C)C(=O)N[C@@H](CC(N)=O)C(=O)O)[C@@H](C)O)C(C)C)[C@@H](C)CC [Ncl_26] (H-NKDGIIWVATEGALN-OH) | 843
CC(C)C[C@H](NC(=O)[C@H](C)NC(=O)[C@@H](NC(=O)[C@H](Cc1ccccc1)NC(=O)[C@H](Cc1c[nH]c2ccccc12)NC(=O)[C@@H](N)CO)[C@@H](C)O)C(=O)N[C@H](C(=O)N[C@@H](CCC(N)=O)C(=O)N[C@@H](Cc1c[nH]cn1)C(=O)NCC(=O)N[C@@H](CCCCN)C(=O)N[C@@H](CCC(=O)O)C(=O)N[C@@H](CC(=O)O)C(=O)N[C@@H](CC(C)C)C(=O)N[C@@H](CCCCN)C(=O)O)[C@@H](C)O [Ncl_11] (H-SWFTALTQHGKEDLK-OH) | 13900

Query string: Suppose we examine the compound CC[C@H](C)[C@H](NC(=O)[C@H](CCC(=O)O)NC(=O)[C@@H](N)CCCCN)C(=O)N[C@H](C(=O)N[C@H](C(=O)N[C@@H](C)C(=O)N[C@H](C(=O)N[C@@H](CO)C(=O)N[C@@H](CCCNC(=N)N)C(=O)N[C@H](C(=O)N[C@@H](CC(C)C)C(=O)N[C@@H](CO)C(=O)N[C@@H](Cc1ccc(O)cc1)C(=O)N[C@@H](Cc1ccc(O)cc1)C(=O)N[C@@H](CCCCN)C(=O)O)[C@@H](C)O)[C@@H](C)O)C(C)C)[C@@H](C)O [Mem_34] (H-KEITVATSRTLSYYK-OH) ; what IC50 value has been reported?
Result string: 770

----------
- TARGET ENTITY: DRB1*15:01 (Homo sapiens, UniProt P01903+P01911)
- PROTOCOL DETAILS: biochemical
Where a SMILES comes first, the peptide text is derived from it.
REPORTED METRIC: pIC50
In plain terms, pIC50 is the concentration in mol/L turned into minus its base-10 logarithm.

CC(C)C[C@H](NC(=O)[C@H](Cc1ccc(O)cc1)NC(=O)[C@H](Cc1ccc(O)cc1)NC(=O)[C@H](Cc1ccccc1)NC(=O)[C@H](Cc1ccc(O)cc1)NC(=O)[C@H](Cc1c[nH]c2ccccc12)NC(=O)[C@H](CCCNC(=N)N)NC(=O)[C@@H]1CCCN1)C(=O)NCC(=O)N[C@H](C(=O)NCC(=O)N1CCC[C@H]1C(=O)N[C@@H](CCC(=O)O)C(=O)N[C@@H](C)C(=O)NCC(=O)O)[C@@H](C)O [Ncl_22] (H-PRWYFYYLGTGPEAG-OH) | 6.11
CSCC[C@H](NC(=O)[C@H](CCCCN)NC(=O)[C@H](CO)NC(=O)[C@H](CCC(=O)O)NC(=O)[C@H](CC(C)C)NC(=O)[C@H](CCC(N)=O)NC(=O)[C@H](CC(N)=O)NC(=O)[C@H](CC(C)C)NC(=O)[C@H](CCCNC(=N)N)NC(=O)[C@H](CC(=O)O)NC(=O)[C@H](CC(C)C)NC(=O)[C@H](CC(C)C)NC(=O)[C@H](CC(C)C)NC(=O)[C@@H](N)CC(C)C)C(=O)N[C@@H](CO)C(=O)O [Ncl_45] (H-LLLLDRLNQLESKMS-OH) | 6.87
CC[C@H](C)[C@H](NC(=O)CNC(=O)[C@H](CC(=O)O)NC(=O)[C@H](CCCCN)NC(=O)[C@@H](N)CC(N)=O)C(=O)N[C@H](C(=O)N[C@@H](Cc1c[nH]c2ccccc12)C(=O)N[C@H](C(=O)N[C@@H](C)C(=O)N[C@H](C(=O)N[C@@H](CCC(=O)O)C(=O)NCC(=O)N[C@@H](C)C(=O)N[C@@H](CC(C)C)C(=O)N[C@@H](CC(N)=O)C(=O)O)[C@@H](C)O)C(C)C)[C@@H](C)CC [Ncl_26] (H-NKDGIIWVATEGALN-OH) | 6.22

Query string: Bench note: what pIC50 did CC[C@H](C)[C@H](NC(=O)[C@H](CCCNC(=N)N)NC(=O)[C@H](CCCNC(=N)N)NC(=O)[C@@H](NC(=O)[C@H](C)NC(=O)[C@H](CCCNC(=N)N)NC(=O)[C@H](CCCNC(=N)N)NC(=O)[C@H](Cc1ccc(O)cc1)NC(=O)[C@@H](N)Cc1ccc(O)cc1)[C@@H](C)O)C(=O)N[C@@H](CCCNC(=N)N)C(=O)NCC(=O)NCC(=O)N[C@@H](CC(=O)O)C(=O)NCC(=O)N[C@@H](CCCCN)C(=O)O [Ncl_P18] (H-YYRRATRRIRGGDGK-OH) show?
Result string: 5.86

Query string: Item CC[C@H](C)[C@H](NC(=O)[C@H](CCCNC(=N)N)NC(=O)[C@H](CC(C)C)NC(=O)[C@H](Cc1c[nH]cn1)NC(=O)CNC(=O)[C@@H](N)CCCNC(=N)N)C(=O)N[C@@H](C)C(=O)NCC(=O)N[C@@H](Cc1c[nH]cn1)C(=O)N[C@@H](Cc1c[nH]cn1)C(=O)N[C@@H](CC(C)C)C(=O)NCC(=O)N[C@@H](CCCNC(=N)N)C(=O)N[C@@H](CS)C(=O)N[C@@H](CC(=O)O)C(=O)O [Mem_30] (H-RGHLRIAGHHLGRCD-OH) has what recorded pIC50?
Result string: 7.26
